# MEASUREMENT TARGET: T1, extracellular domain of rhesus monkey BCMA (rhesus monkey, UniProt F7FFA0 1-53)
# T1 construct: extracellular domain; also called RhBCMA
# T1 sequence (F7FFA0 entry or part of it): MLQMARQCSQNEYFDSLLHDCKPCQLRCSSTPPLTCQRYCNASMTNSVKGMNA
# MEASUREMENT PROTOCOL: Octet BLI; Fab 200 nM
MEASURED ENDPOINT: Kd (nM)
All answers are understood in nM, so give the number only.

Worked cases, answers included:
[[record]]
binder = "AB200-R1a-Fab_VH4 (Fab, V domains shown) VH: QVQLVQSGAEVKKPGSSVKVSCKATGGTFSNYWMHWVRQAPGQGLEWMGATYRGHSNTYYDQKFKGRVTITADKSTSTAYMELSSLRSEDTAVYYCARGAIYHGYDVLDNWGQGTLVTVSS VL: DIQMTQSPSSLSASVGDRVTITCSATQDISNYLNWYQQKPGKAPKLLIYFTSNLQSGVPSRFSGSGSGTDFTLTISSLQPEDFATYYCQQYRKLPWTFGQGTKLEIKR"
observed_measurement = 13.7

[[record]]
binder = "AB200-R1a-Fab_VH16 (Fab, V domains shown) VH: QVQLVQSGAEVKKPGSSVKVSCKASGGTFSTYWMHWVRQAPGQGLEWMGATYRIHSDTYYNQKFKGRVTITADESTSTAYMELSSLRSEDTAVYYCARGAIYHGYDVLDNWGQGTLVTVSS VL: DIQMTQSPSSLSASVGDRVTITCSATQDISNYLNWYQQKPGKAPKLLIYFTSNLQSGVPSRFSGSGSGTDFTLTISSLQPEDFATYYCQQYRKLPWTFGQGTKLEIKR"
observed_measurement = 15.2


Enquiry: Tell us which Kd value is on record for AB200-R1a-Fab_VH19 (Fab, V domains shown) VH: QVQLVQSGAEVKKPGSSVKVSCKASGGSFSNYWMQWVRQAPGQGLEWMGATYRGHSDTYYNQKFKGRVTITADKSTSTAYMELSSLRSEDTAVYYCARGSIYHGYDVLDNWGQGTLVTVSS VL: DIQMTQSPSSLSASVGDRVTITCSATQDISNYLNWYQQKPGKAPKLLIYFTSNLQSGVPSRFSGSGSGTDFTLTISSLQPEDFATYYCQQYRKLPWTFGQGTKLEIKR
Return: 35.6
